- assayed-system: FLT3 kinase (Homo sapiens)
- Sequence (P36888 27-993): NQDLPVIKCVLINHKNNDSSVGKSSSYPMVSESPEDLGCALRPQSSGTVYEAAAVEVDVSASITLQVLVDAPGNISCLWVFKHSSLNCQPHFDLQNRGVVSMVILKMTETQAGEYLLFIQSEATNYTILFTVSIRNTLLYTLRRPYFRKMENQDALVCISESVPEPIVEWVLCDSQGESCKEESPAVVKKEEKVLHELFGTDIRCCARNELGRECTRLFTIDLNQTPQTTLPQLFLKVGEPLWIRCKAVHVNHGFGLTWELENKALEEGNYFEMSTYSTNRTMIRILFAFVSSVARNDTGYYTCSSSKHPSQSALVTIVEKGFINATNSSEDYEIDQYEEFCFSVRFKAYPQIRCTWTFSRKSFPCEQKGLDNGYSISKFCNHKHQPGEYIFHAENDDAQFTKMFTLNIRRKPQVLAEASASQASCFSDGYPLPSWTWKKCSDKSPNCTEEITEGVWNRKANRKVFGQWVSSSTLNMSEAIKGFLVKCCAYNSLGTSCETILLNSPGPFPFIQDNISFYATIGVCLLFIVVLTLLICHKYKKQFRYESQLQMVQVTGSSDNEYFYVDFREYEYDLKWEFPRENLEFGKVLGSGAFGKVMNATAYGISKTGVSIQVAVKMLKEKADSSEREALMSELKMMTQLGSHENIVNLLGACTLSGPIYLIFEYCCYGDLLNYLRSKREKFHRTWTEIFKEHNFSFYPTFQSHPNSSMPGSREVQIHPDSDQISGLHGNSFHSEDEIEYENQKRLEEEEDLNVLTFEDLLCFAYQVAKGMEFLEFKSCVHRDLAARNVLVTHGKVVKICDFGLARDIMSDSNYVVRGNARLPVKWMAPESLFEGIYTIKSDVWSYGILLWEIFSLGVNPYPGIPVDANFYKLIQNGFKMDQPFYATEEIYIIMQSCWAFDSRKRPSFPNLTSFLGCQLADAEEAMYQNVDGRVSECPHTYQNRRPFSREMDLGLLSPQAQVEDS
experimental-readout: Kd

Please review the entries below; each comes with its answer.
| molecule | assayed-system | experimental-readout | result |
| --- | --- | --- | --- |
| CC(C)(C)c1cc(NC(=O)Nc2ccc(-c3cnc(N)c(CN4CCOCC4)c3)cc2)no1 [Example 13] | FLT3 kinase (Homo sapiens) | Kd | 1 to 10 nM |
| CC(C)(C)c1cc(NC(=O)Cc2ccc(-c3cnc(N)c(F)c3)cc2)no1.CS(=O)(=O)O [Example 94, methanesulfonate] | FLT3 kinase (Homo sapiens) | Kd | 1 to 10 nM |
| CC(=O)O.Nc1ccc(-c2ccc(CC(=O)Nc3cc(C4(CF)CC4)on3)cc2)cn1 [Example 103, acetate] | FLT3 kinase (Homo sapiens) | Kd | ≤ 1 nM |

Reported Kd ( CC(C)(C)c1cc(NC(=O)Nc2ccc(-c3cnc4c(c3)OCC(=O)N4)cc2)no1 [Example 3] ) = ≤ 1 nM

Reported Kd ( CC(C)(C)c1cc(NC(=O)Cc2ccc(-c3cnc(N)nc3)cn2)no1 [Example 77] ) = ≤ 1 nM

Reported Kd ( CC(C)(C)c1cc(NC(=O)Cc2ccc(-c3ccc(N)nc3)c(F)c2)no1.CS(=O)(=O)O [Example 125, methanesulfonate] ) = ≤ 1 nM

Reported Kd ( CC(C)(C)c1cc(NC(=O)Nc2ccc(-c3cnc(NCCN4CCCCC4)nc3)cc2)no1 [Example 60] ) = ≤ 1 nM

###

- assayed-system: CSF-1R kinase (Homo sapiens)
- Sequence (P07333 20-972): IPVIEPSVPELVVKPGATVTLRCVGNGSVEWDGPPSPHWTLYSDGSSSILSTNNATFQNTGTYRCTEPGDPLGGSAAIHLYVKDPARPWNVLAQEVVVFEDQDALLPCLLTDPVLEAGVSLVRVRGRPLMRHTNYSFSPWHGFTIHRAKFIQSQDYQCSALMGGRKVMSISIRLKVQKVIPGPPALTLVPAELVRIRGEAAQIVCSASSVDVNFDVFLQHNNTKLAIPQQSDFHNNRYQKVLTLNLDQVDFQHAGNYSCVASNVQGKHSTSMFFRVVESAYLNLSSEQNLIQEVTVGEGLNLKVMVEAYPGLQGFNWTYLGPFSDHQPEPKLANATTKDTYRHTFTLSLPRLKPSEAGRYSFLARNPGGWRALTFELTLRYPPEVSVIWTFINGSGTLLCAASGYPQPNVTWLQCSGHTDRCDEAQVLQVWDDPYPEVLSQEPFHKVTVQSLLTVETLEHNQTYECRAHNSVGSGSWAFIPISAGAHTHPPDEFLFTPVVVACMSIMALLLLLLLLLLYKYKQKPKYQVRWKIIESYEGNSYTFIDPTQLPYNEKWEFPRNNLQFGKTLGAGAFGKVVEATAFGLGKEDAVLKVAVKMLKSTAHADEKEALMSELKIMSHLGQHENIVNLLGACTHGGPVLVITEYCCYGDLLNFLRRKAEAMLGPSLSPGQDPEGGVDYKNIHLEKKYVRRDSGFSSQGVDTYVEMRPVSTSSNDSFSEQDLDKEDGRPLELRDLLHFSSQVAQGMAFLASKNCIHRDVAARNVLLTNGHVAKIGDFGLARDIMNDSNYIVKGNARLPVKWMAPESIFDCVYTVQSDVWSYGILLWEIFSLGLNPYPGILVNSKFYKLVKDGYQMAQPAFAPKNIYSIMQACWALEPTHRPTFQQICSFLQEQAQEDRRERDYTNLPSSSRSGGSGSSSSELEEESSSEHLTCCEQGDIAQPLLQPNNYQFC
pKd: −log10 of the molar value.
Entries and their pKd values follow.

Please review the entries below; each comes with its answer.
| molecule | assayed-system | result |
| --- | --- | --- |
| CS(=O)(=O)O.Nc1ccc(-c2ccc(NC(=O)Nc3cc(C4(C(F)(F)F)CCC4)on3)cc2)cn1 [Example 121, methanesulfonate] | CSF-1R kinase (Homo sapiens) | 7.00 to 8.00 |
| CS(=O)(=O)O.Cc1cc(-c2ccc(CC(=O)Nc3cc(C4(C(F)(F)F)CC4)on3)cc2)cnc1N | CSF-1R kinase (Homo sapiens) | ≥ 8.00 |
| CC(C)(C)c1cc(NC(=O)Cc2ccc(-c3ccc(N)nc3F)cc2)on1.CS(=O)(=O)O [Example 119, methanesulfonate] | CSF-1R kinase (Homo sapiens) | ≥ 8.00 |

Reported pKd ( CC(C)(F)c1cc(NC(=O)Nc2ccc(-c3ccc(N)nc3)cc2)on1 [Example 32, methanesulfonate] ) = ≥ 8.00

Reported pKd ( `CC(C)(C)c1cc(NC(=O)Cc2ccc(-c3ccc(N)nc3C#N)cc2)no1` ) = 7.00 to 8.00

Reported pKd ( `CS(=O)(=O)O.Nc1ncc(-c2ccc(CC(=O)Nc3cc(C4(C(F)(F)F)CC4)on3)cc2)cc1F` ) = ≥ 8.00

Reported pKd ( CC1(c2cc(NC(=O)Nc3ccc(-c4ccc(N)nc4)cc3)no2)CC1.CS(=O)(=O)O [Example 106, methanesulfonate] ) = ≥ 8.00

Reported pKd ( `CC(C)(C)c1cc(NC(=O)Nc2ccc(-c3cnc(OCCN4CCOCC4)nc3)cc2)no1` ) = 7.00 to 8.00

###

- assayed-system: FLT3 kinase (Homo sapiens, UniProt P36888)
- Sequence (P36888 27-993): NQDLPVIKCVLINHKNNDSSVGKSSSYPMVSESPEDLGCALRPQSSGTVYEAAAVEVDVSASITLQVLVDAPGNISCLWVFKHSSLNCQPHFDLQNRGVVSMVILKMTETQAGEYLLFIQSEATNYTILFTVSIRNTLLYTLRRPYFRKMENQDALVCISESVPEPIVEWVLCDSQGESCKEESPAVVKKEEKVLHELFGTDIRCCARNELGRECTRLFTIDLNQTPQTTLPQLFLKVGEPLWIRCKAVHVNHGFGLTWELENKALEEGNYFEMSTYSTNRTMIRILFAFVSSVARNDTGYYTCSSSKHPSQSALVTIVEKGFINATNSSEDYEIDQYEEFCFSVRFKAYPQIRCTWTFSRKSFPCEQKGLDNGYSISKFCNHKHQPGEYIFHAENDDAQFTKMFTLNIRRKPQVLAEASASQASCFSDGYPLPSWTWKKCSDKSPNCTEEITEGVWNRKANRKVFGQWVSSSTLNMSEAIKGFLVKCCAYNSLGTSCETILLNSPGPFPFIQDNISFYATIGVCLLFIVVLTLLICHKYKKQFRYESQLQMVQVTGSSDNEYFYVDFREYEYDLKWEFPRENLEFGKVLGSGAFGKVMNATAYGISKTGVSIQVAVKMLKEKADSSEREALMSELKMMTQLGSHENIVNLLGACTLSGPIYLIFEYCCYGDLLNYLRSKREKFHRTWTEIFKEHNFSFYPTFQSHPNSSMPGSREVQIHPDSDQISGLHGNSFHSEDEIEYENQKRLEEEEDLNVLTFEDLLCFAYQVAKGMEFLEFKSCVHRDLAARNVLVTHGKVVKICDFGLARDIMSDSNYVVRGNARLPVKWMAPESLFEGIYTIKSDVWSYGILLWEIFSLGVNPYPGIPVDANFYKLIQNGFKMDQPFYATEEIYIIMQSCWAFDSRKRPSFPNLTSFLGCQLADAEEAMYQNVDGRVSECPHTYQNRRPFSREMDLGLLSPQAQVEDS
pKd: −log10 of the molar value.
experimental-readout: pKd

Please review the entries below; each comes with its answer.
| compound | assayed-system | pKd |
| --- | --- | --- |
| CC(=O)O.CC1(c2cc(NC(=O)Cc3ccc(-c4ccc(N)nc4)cc3)no2)CC1(F)F (centres unmarked) [Example 102, acetate] | FLT3 kinase (Homo sapiens, UniProt P36888) | ≥ 9.00 |
| CC(C)(F)c1cc(NC(=O)Nc2ccc(-c3ccc(N)nc3)cc2)on1 [Example 32, methanesulfonate] | FLT3 kinase (Homo sapiens, UniProt P36888) | ≥ 9.00 |
| CC(C)(C)c1cc(NC(=O)Cc2c(F)cc(-c3ccc(N)nc3)cc2F)no1.CS(=O)(=O)O [Example 123, methanesulfonate] | FLT3 kinase (Homo sapiens, UniProt P36888) | ≥ 9.00 |
| CS(=O)(=O)O.Nc1ncc(-c2ccc(CC(=O)Nc3cc(C4(C(F)(F)F)CC4)on3)cc2)cc1Cl [Example 133, methanesulfonate] | FLT3 kinase (Homo sapiens, UniProt P36888) | ≥ 9.00 |
| CC(C)(c1cc(NC(=O)Cc2ccc(-c3ccc(N)nc3)cc2)no1)C(F)(F)F [Example 72, acetate] | FLT3 kinase (Homo sapiens, UniProt P36888) | ≥ 9.00 |
| O=C(Nc1ccc(-c2cnc(NCCN3CCOCC3)nc2)cc1)Nc1cc(C2(C(F)(F)F)CC2)on1 [Example 53] | FLT3 kinase (Homo sapiens, UniProt P36888) | ≥ 9.00 |

Reported pKd ( COCCNc1ncc(-c2ccc(NC(=O)Nc3cc(C(C)(C)C)on3)cc2)cn1 [Example 58] ) = ≥ 9.00

Reported pKd ( CC(C)(C)c1cc(NC(=O)C(F)(F)c2ccc(-c3ccc(N)nc3)cc2)no1 [Example 178] ) = ≥ 9.00

Reported pKd ( CC(C)(C)c1cc(NC(=O)Cc2ccc(-c3ccc(N)nc3Cl)cc2)no1.CS(=O)(=O)O [Example 132, methanesulfonate] ) = ≥ 9.00
